Molecular target: BIR3 domain of human cIAP-1 (residues 267-363) (Homo sapiens (Human), UniProt Q13490)
Experiment: cIAP-1 in vitro competitive displacement binding assay (fluorescence polarization; Probe A AVPIK(5&6FAM)-amide or Probe B AbuRPFK(5&6FAM)-amide)
Details: Probe B AbuRPFK(5&6FAM)-amide; read-out: IC50 or PI cIAP1: IC50
Counter-ions that a name gives are not always drawn.
measurement-label: IC50 (nM)

compound	IC50 [nM]
C[C@@H]1CN(CC(=O)N2C[C@@](C)(c3ccccc3)c3ccc(C#N)cc32)[C@@H](C(=O)N2CCOCC2)CN1 [Example 152]	110
C[C@@H]1CN(CC(=O)N2C[C@](C)(c3ccccc3)c3ccc(C#N)cc32)[C@@H](C(=O)N2CCOCC2)CN1 [Example 153]	160
COC[C@H]1CN[C@H](C)CN1CC(=O)N1CC(C)(C)c2cnc(Oc3c(F)cccc3F)cc21 [Example 128, hydrochloride]	120

[A] COC[C@H]1CN[C@H](C)CN1CC(=O)N1CC(C)(C)c2cc(C)c(C#N)cc21 [Example 134]
[B] C[C@@H]1CN(CC(=O)N2CC(C)(c3ccccc3)c3ccc(C#N)cc32)[C@@H](Cn2cccn2)CN1 (stereo partly shown) [Example 143, hydrochloride]
Compare the recorded IC50 of A and B ; state which is larger. Let me know the label of the one you choose. A
(A: 590 nM, B: 200 nM)

----------
Target: BIR3 domain of human cIAP-1 (residues 267-363) (Homo sapiens (Human))
Assay: cIAP-1 in vitro competitive displacement binding assay (fluorescence polarization; Probe A AVPIK(5&6FAM)-amide or Probe B AbuRPFK(5&6FAM)-amide)
pIC50: −log10 of the molar value. Counter-ions that a name gives are not always drawn.
Listed here: items and their measured pIC50.

These solved cases illustrate the format of a correct answer.
compound	system-tested	pIC50
C[C@@H]1CN(CC(=O)N2CC(C)(C)c3ncc(C(C)(F)F)cc32)[C@@H](CN2CCN(C)C(=O)C2)CN1 [Example 228, dihydrochloride]	BIR3 domain of human cIAP-1 (residues 267-363) (Homo sapiens (Human))	> 6.00
C[C@@H]1CN(CC(=O)N2CC(C)(C)c3ccc(Cl)cc32)[C@@H](CO)CN1 [Example 40, hydrochloride salt]	BIR3 domain of human cIAP-1 (residues 267-363) (Homo sapiens (Human))	> 6.00
CNC(=O)[C@H]1CN[C@H](C)CN1CC(=O)N1CC(C)(C)c2cc(F)c(S(=O)(=O)c3ccccc3)cc21 [Example 56, hydrochloride salt]	BIR3 domain of human cIAP-1 (residues 267-363) (Homo sapiens (Human))	> 6.00

// below: pIC50 requested for another compound
Request body: readout pIC50, system BIR3 domain of human cIAP-1 (residues 267-363) (Homo sapiens (Human)), query C[C@@H]1CN(CC(=O)N2CC(C)(C)c3ncc(C(C)(F)F)cc32)[C@@H](CN2CCc3cccnc32)CN1 [Example 222, dihydrochloride] . Return the value. > 6.00

----------
Target: BIR3 domain of human XIAP (residues 252-350) (Homo sapiens (Human), UniProt P98170)
Experiment: XIAP in vitro competitive displacement binding assay (fluorescence polarization)
Settings: 1 h; @ 0.04 μM; read-out: IC50 or PI Xiap: PI
Counter-ions that a name gives are not always drawn.
measurement-label: inhibition at 0.04 µM (%)

molecule	measurement-label	unit-name	observed-value
CCCC(F)(F)c1cc2c(cn1)C(C)(C)CN2C(=O)CN1C[C@@H](C)NC[C@@H]1CN1CCCC1=O [Example 227, hydrochloride]	inhibition at 0.04 µM	%	60
CC(C)CC(F)(F)c1cc2c(cn1)C(C)(C)CN2C(=O)CN1C[C@@H](C)NC[C@@H]1CN1CCOCC1 [Example 229, hydrochloride]	inhibition at 0.04 µM	%	53
CCC(F)(F)c1cc2c(cn1)C(C)(C)CN2C(=O)CN1C[C@@H](C)NC[C@@H]1CN1CCCC1=O	inhibition at 0.04 µM	%	69
C[C@@H]1CN(CC(=O)N2CC(C)(C)c3cnc(Cc4ccccc4F)cc32)[C@@H](CN2CCOC[C@H]2C)CN1 [Example 244, hydrochloride]	inhibition at 0.04 µM	%	67
C[C@@H]1CN(CC(=O)N2CC(C)(C)c3cnc(Oc4ccccc4Cl)cc32)[C@@H](CN2CCOC2=O)CN1 [Example 189, hydrochloride]	inhibition at 0.04 µM	%	70
Cc1cnn(C[C@H]2CN[C@H](C)CN2CC(=O)N2CC(C)(C)c3cnc(Cc4ccccc4)cc32)c1 [Example 147, hydrochloride]	inhibition at 0.04 µM	%	49
C[C@@H]1CN(CC(=O)N2CC(C)(C)c3ncc(Cc4ccccc4F)cc32)[C@@H](CN2CCCC2=O)CN1 [Example 249, hydrochloride]	inhibition at 0.04 µM	%	56
C[C@@H]1CN(CC(=O)N2CC(C)(C)c3cnc(C(F)(F)c4ccccc4)cc32)[C@@H](CN2CCN(C)C2=O)CN1 [Example 197, hydrochloride]	inhibition at 0.04 µM	%	68
CCCC(F)(F)c1cc2c(cn1)C(C)(C)CN2C(=O)CN1C[C@@H](C)NC[C@@H]1CN1CCOC[C@H]1C	inhibition at 0.04 µM	%	72
C[C@@H]1CN(CC(=O)N2C[C@](C)(c3ccccc3)c3ccc(C#N)cc32)[C@@H](C(=O)N2CCOCC2)CN1	inhibition at 0.04 µM	%	54
C[C@@H]1CN(CC(=O)N2CC(C)(C)c3cnc(Cc4ccccc4F)cc32)[C@@H](CN2CCCC2=O)CN1 [Example 242, hydrochloride]	inhibition at 0.04 µM	%	65
CCC(F)(F)c1cnc2c(c1)N(C(=O)CN1C[C@@H](C)NC[C@@H]1CN1CCOC[C@H]1C)CC2(C)C [Example 186, hydrochloride salt]	inhibition at 0.04 µM	%	59
CC(C)CC(F)(F)c1cc2c(cn1)C(C)(C)CN2C(=O)CN1C[C@@H](C)NC[C@@H]1CN1CCCC1=O [Example 225, hydrochloride]	inhibition at 0.04 µM	%	62

----------
Target: BIR3 domain of human cIAP-1 (residues 267-363) (Homo sapiens (Human))
Assay: cIAP-1 in vitro competitive displacement binding assay (fluorescence polarization; Probe A AVPIK(5&6FAM)-amide or Probe B AbuRPFK(5&6FAM)-amide)
Settings: Probe B AbuRPFK(5&6FAM)-amide; read-out: IC50 or PI cIAP1: IC50
pIC50: −log10 of the molar value. Where a name gives a salt, the structure may show the parent alone.
measurement-label: pIC50

molecule	pIC50
CNS(=O)(=O)c1cc2c(cc1Br)CCN2C(=O)CN1CCN[C@H](C)C1 [Example 25, hydrochloride salt]	4.21
C[C@@H]1CN(CC(=O)N2CC(C)(C)c3ccc(C#N)cc32)CCN1	5.10

[I] CC1(C)CN(C(=O)CN2CCN[C@H](CF)C2)c2cc(Cc3ccccc3)ncc21
[II] CCC(F)(F)c1cnc2c(c1)N(C(=O)CN1C[C@@H](C)NC[C@@H]1CN1CCOC[C@H]1C)CC2(C)C [Example 186, hydrochloride salt]
Compare the recorded pIC50 of I and II ; state which is larger. Let me know the label of the one you choose. II
(II: 7.96, I: 6.17)

----------
Molecular target: BIR3 domain of human XIAP (residues 252-350) (Homo sapiens (Human), UniProt P98170)
Assay: XIAP in vitro competitive displacement binding assay (fluorescence polarization)
Conditions: read-out: IC50 or PI Xiap: IC50
Where a name gives a salt, the structure may show the parent alone.
measurement-label: IC50 (nM)

compound	measurement-label	unit-name	observed-value
COC[C@H]1CN[C@H](C)CN1CC(=O)N1CC(C)(C)c2cnc(-c3ccsc3)cc21 [Example 126, dihydrochloride]	IC50	nM	380
COC[C@H]1CN[C@H](C)CN1CC(=O)N1CC(C)(C)c2cnc(C(=O)c3ccccc3)cc21 [Example 96, dihydrochloride salt]	IC50	nM	340

[I] C[C@@H]1CN(CC(=O)N2C[C@@](C)(c3ccccc3)c3ccc(C#N)cc32)[C@@H](Cn2cccn2)CN1 [Example 154]
[II] CC[C@H]1CN[C@H](C)CN1CC(=O)N1CC(C)(C)c2cnc(Cn3cccn3)cc21 [Example 95]
Compare the recorded IC50 of I and II ; state which is larger. Let me know the label of the one you choose. II

----------
Target: BIR3 domain of human cIAP-1 (residues 267-363) (Homo sapiens (Human), UniProt Q13490)
Test: cIAP-1 in vitro competitive displacement binding assay (fluorescence polarization; Probe A AVPIK(5&6FAM)-amide or Probe B AbuRPFK(5&6FAM)-amide)
Details: Probe B AbuRPFK(5&6FAM)-amide; read-out: IC50 or PI cIAP1: IC50
Where a name gives a salt, the structure may show the parent alone.
measurement-label: IC50 (nM)

These solved cases illustrate the format of a correct answer.
molecule	system-tested	IC50, nM
COC[C@H]1CN[C@H](C)CN1CC(=O)N1CC(C)(C)c2cnc(Cc3ccccc3F)cc21 [Example 77]	BIR3 domain of human cIAP-1 (residues 267-363) (Homo sapiens (Human), UniProt Q13490)	9
CC[C@H]1CN[C@H](C)CN1CC(=O)N1CC(C)(C)c2cnc(Cn3cccn3)cc21 [Example 95]	BIR3 domain of human cIAP-1 (residues 267-363) (Homo sapiens (Human), UniProt Q13490)	680
COC[C@H]1CN[C@H](C)CN1CC(=O)N1CC(C)(C)c2cnc(CC(C)C)cc21 [Example 72]	BIR3 domain of human cIAP-1 (residues 267-363) (Homo sapiens (Human), UniProt Q13490)	310
COC[C@H]1CN[C@H](C)CN1CC(=O)N1CC(C)(C)c2cnc(Cc3cccc(F)c3)cc21 [Example 97, hydrochloride salt]	BIR3 domain of human cIAP-1 (residues 267-363) (Homo sapiens (Human), UniProt Q13490)	17

[P] COC[C@H]1CN[C@H](C)CN1CC(=O)N1CC(C)(C)c2cnc(C3=CCCC3)cc21 [Example 90, hydrochloride salt]
[Q] COC[C@H]1CN[C@H](C)CN1CC(=O)N1CC(C)(C)c2cnc(N3CCCC3=O)cc21 [Example 102, hydrochloride salt]
[R] C[C@@H]1CN(CC(=O)N2CC(C)(C)c3cnc(Oc4ccccc4Cl)cc32)[C@@H](CN2CCOC2=O)CN1 [Example 189, hydrochloride]
[S] CNC(=O)[C@H]1CN[C@H](C)CN1CC(=O)N1CC(C)(C)c2ccc(Cl)cc21 [Example 54, hydrochloride salt]
[T] CNC(=O)[C@H]1CN[C@H](C)CN1CC(=O)N1CC(C)(C)c2cc(F)c(S(=O)(=O)c3ccccc3)cc21 [Example 56, hydrochloride salt]
I would appreciate it if you could sort these 5 molecules by IC50, starting from the smallest number. As an answer, provide the labels arranged in the order called for. R, P, T, Q, S

[P] COC[C@H]1CN[C@H](C)CN1CC(=O)N1CC(C)(C)c2cnc(Oc3ccccc3)cc21 [Example 74, hydrochloride salt]
[Q] CC1(C)CN(C(=O)CN2CCNC(CF)C2)c2cc(Cc3ccccc3)ncc21 (centres unmarked) [Example 114]
[R] COC[C@H]1CN[C@H](C)CN1CC(=O)N1CC(C)(C)c2cnc(C(F)(F)c3ccccc3)cc21 [Example 146, hydrochloride]
I would appreciate it if you could sort these 3 molecules by IC50, starting from the smallest number. As an answer, provide the labels arranged in the order called for. R, P, Q
